// reported Conversion rate per item
experiment: Conversion rate of substrate compound A by E. coli expressing each engineered protein (HPLC, oxygenase activity); format: biochemical; conditions: Reaction condition 1: bacteria cultured overnight, substrate compound A and IPTG added to react overnight

# Molecule, Conversion rate / %
measured = [
    ("SEQ ID NO: 6 (protein) MHAALSPLSQRFERIAVQPLTGVLGAEITGVDLREPLDDSTWNEILDAFHTYQVIYFPGQAITNEQHIAFSRRFGPVDPVPHLKSIEGYPEVQMIRREANESGRVIGDDWHTDSTFLDAPPAAVVMRAIDVPEHGGDTGFLSMYTAWETLSPTMQATIEGLNVVHSATRVFGSLYQAQNRRFSNTSLKVMDVDAGDRETVHPLVVTHPGSGRKGLYVNQVYCQRIEGMTDAESKPLLQFLYEHATRFDFTCRVRWKKDQVLVWDNLCTMHRAVPDYAGKFRYLTRTTVGGVRPAR", 95.2),
    ("SEQ ID NO: 74 (protein) MHAALSPLSQRFERIAVQPLTGVLGAEITGVDLREPLDDSTWNEILDAFHTYQVIYFPGQAITNEQHIAFSRRFGPVDPVPHLKSIEGYPEVQMIRREANESGGVIGDDWHTDSTFLDAPPAAVVMRAIDVPEHGGDTGFLSMYTAWETLSPTMQATIEGLNVVHSATRVFGSLYQAQNRRWSNTSLKVMDVDAGDRETVHPLVVTHPGSGRKGLYVNPVYCQRIEGMTDAESKPLLQFLYEHATRFDFTCRVRWKKDQVLVWDNLCTMHRAVPDYAGKFRYLTRTTVGGVRPAR", 97.2),
    ("SEQ ID NO: 50: RdpA mutant L82H + V187L + F182W + R104G + V80T (protein) MHAALSPLSQRFERIAVQPLTGVLGAEITGVDLREPLDDSTWNEILDAFHTYQVIYFPGQAITNEQHIAFSRRFGPVDPTPHLKSIEGYPEVQMIRREANESGGVIGDDWHTDSTFLDAPPAAVVMRAIDVPEHGGDTGFLSMYTAWETLSPTMQATIEGLNVVHSATRVFGSLYQAQNRRWSNTSLKVMDVDAGDRETVHPLVVTHPGSGRKGLYVNQVYCQRIEGMTDAESKPLLQFLYEHATRFDFTCRVRWKKDQVLVWDNLCTMHRAVPDYAGKFRYLTRTTVGGVRPAR", 97.2),
    ("SEQ ID NO: 54: RdpA mutant L82H + V187L + F182W + R104G + R180W (protein) MHAALSPLSQRFERIAVQPLTGVLGAEITGVDLREPLDDSTWNEILDAFHTYQVIYFPGQAITNEQHIAFSRRFGPVDPVPHLKSIEGYPEVQMIRREANESGGVIGDDWHTDSTFLDAPPAAVVMRAIDVPEHGGDTGFLSMYTAWETLSPTMQATIEGLNVVHSATRVFGSLYQAQNWRWSNTSLKVMDVDAGDRETVHPLVVTHPGSGRKGLYVNQVYCQRIEGMTDAESKPLLQFLYEHATRFDFTCRVRWKKDQVLVWDNLCTMHRAVPDYAGKFRYLTRTTVGGVRPAR", 92.5),
    ("SEQ ID NO: 2 (protein) MHAALSPLSQRFERIAVQPLTGVLGAEITGVDLREPLDDSTWNEILDAFHTYQVIYFPGQAITNEQHIAFSRRFGPVDPVPHLKSIEGYPEVQMIRREANESGRVIGDDWHTDSTFLDAPPAAVVMRAIDVPEHGGDTGFLSMYTAWETLSPTMQATIEGLNVVHSATRVFGSLYQAQNRRFSNTSVKVMDVDAGDRETVHPLVVTHPGSGRKGLYVNQVYCQRIEGMTDAESKPLLQFLYEHATRFDFTCRVRWKKDQVLVWDNLCTMHRAVPDYAGKFRYLTRTTVGGVRPAR", 67.5),
    ("SEQ ID NO: 22 (protein) MHAALSPLSQRFERIAVQPLTGVLGAEITGVDLREPLDDSTWNEILDAFHTYQVIYFPGQAITNEQHIAFSRRFGPVDPVPHLKSIEGYPEVQMIRREANESGDVIGDDWHTDSTFLDAPPAAVVMRAIDVPEHGGDTGFLSMYTAWETLSPTMQATIEGLNVVHSATRVFGSLYQAQNRRFSNTSLKVMDVDAGDRETVHPLVVTHPGSGRKGLYVNQVYCQRIEGMTDAESKPLLQFLYEHATRFDFTCRVRWKKDQVLVWDNLCTMHRAVPDYAGKFRYLTRTTVGGVRPAR", 95.5),
    ("SEQ ID NO: 42: RdpA mutant L82H + V187L + F182W + G103L (protein) MHAALSPLSQRFERIAVQPLTGVLGAEITGVDLREPLDDSTWNEILDAFHTYQVIYFPGQAITNEQHIAFSRRFGPVDPVPHLKSIEGYPEVQMIRREANESLRVIGDDWHTDSTFLDAPPAAVVMRAIDVPEHGGDTGFLSMYTAWETLSPTMQATIEGLNVVHSATRVFGSLYQAQNRRWSNTSLKVMDVDAGDRETVHPLVVTHPGSGRKGLYVNQVYCQRIEGMTDAESKPLLQFLYEHATRFDFTCRVRWKKDQVLVWDNLCTMHRAVPDYAGKFRYLTRTTVGGVRPAR", 96.6),
    ("SEQ ID NO: 118: RdpA mutant L82H + V187L + F182W + R104G + V77I (protein) MHAALSPLSQRFERIAVQPLTGVLGAEITGVDLREPLDDSTWNEILDAFHTYQVIYFPGQAITNEQHIAFSRRFGPIDPVPHLKSIEGYPEVQMIRREANESGGVIGDDWHTDSTFLDAPPAAVVMRAIDVPEHGGDTGFLSMYTAWETLSPTMQATIEGLNVVHSATRVFGSLYQAQNRRWSNTSLKVMDVDAGDRETVHPLVVTHPGSGRKGLYVNQVYCQRIEGMTDAESKPLLQFLYEHATRFDFTCRVRWKKDQVLVWDNLCTMHRAVPDYAGKFRYLTRTTVGGVRPAR", 95.8),
]
